Origin of values: patent US9221835B2

System: Mosquito (Aedes aeqypti) larvae
Test: Mosquito (Aedes aeqypti) Larval Assay
Type: in vivo
Conditions: first instar larvae, 25° C., 24 hours, lowest dose to inhibit motility ≧50% of untreated controls, half-log intervals, read-out: Minimum Effective Concentration (MEC)
Structures can show the parent of a compound that is named as a salt.
Measured minimal effective concentration by item

| compound | target | unitDescriptor | censorSymbol | minimal effective concentration |
| --- | --- | --- | --- | --- |
| CS(=O)(=O)CC(=O)N1CC2(C1)OCc1cc(N3CCC(c4cc(Cl)c(F)c(Cl)c4)(C(F)(F)F)C3)ccc12 (stereo not drawn) | Mosquito (Aedes aeqypti) larvae | µM | > | 3 |
| CC(C)C(=O)N1CC2(C1)OCc1cc(N3CCC(c4cc(Cl)c(Cl)c(Cl)c4)(C(F)(F)F)C3)ccc12 (stereo not drawn) | Mosquito (Aedes aeqypti) larvae | µM | > | 3 |
| CS(=O)(=O)CC(=O)N1CC2(C1)OCc1cc(C3=COC(c4cc(Cl)c(F)c(Cl)c4)(C(F)(F)F)C3)ccc12 (stereo not drawn) | Mosquito (Aedes aeqypti) larvae | µM | > | 3 |
| CS(=O)(=O)CC(=O)N1CC2(C1)OCc1cc(C3=NCC(c4cc(Cl)c(Cl)c(Cl)c4)(C(F)(F)F)C3)ccc12 (stereo not drawn) | Mosquito (Aedes aeqypti) larvae | µM | = | 0.1 |
| CS(=O)(=O)CC(=O)N1CC2(C1)OCc1cc(C3=NNC(c4cc(Cl)cc(Cl)c4)(C(F)(F)F)C3)ccc12 (stereo not drawn) | Mosquito (Aedes aeqypti) larvae | µM | = | 0.1 |
| CS(=O)(=O)CC(=O)N1CC2(C1)OCc1cc(C3=NOC(c4cc(Cl)c(Cl)c(Cl)c4)(C(F)(F)F)O3)ccc12 (stereo not drawn) | Mosquito (Aedes aeqypti) larvae | µM | > | 3 |
| CC(C)C(=O)N1CC2(C1)OCc1cc(C3=NCC(c4cc(Cl)c(F)c(Cl)c4)(C(F)(F)F)C3)ccc12 (stereo not drawn) | Mosquito (Aedes aeqypti) larvae | µM | = | 0.1 |
| CC(C)C(=O)N1CC2(C1)OCc1cc(C3=NCC(c4cc(Cl)c(Cl)c(Cl)c4)(C(F)(F)F)C3)ccc12 (stereo not drawn) | Mosquito (Aedes aeqypti) larvae | µM | = | 0.1 |
| CS(=O)(=O)CC(=O)N1CC2(C1)OCc1cc(C3=COC(c4cc(Cl)cc(Cl)c4)(C(F)(F)F)C3)ccc12 (stereo not drawn) | Mosquito (Aedes aeqypti) larvae | µM | > | 3 |
| CS(=O)(=O)CC(=O)N1CC2(C1)OCc1cc(C3=COC(c4cc(Cl)c(Cl)c(Cl)c4)(C(F)(F)F)C3)ccc12 (stereo not drawn) | Mosquito (Aedes aeqypti) larvae | µM | > | 3 |
| CC(C)C(=O)N1CC2(C1)OCc1cc(N3CCC(c4cc(Cl)cc(Cl)c4)(C(F)(F)F)C3)ccc12 (stereo not drawn) | Mosquito (Aedes aeqypti) larvae | µM | > | 3 |
| CS(=O)(=O)CC(=O)N1CC2(C1)OCc1cc(C3=NNC(c4cc(Cl)c(F)c(Cl)c4)(C(F)(F)F)C3)ccc12 (stereo not drawn) | Mosquito (Aedes aeqypti) larvae | µM | = | 0.1 |
| CS(=O)(=O)CC(=O)N1CC2(C1)OCc1cc(C3=NCC(c4cc(Cl)c(F)c(Cl)c4)(C(F)(F)F)C3)ccc12 (stereo not drawn) | Mosquito (Aedes aeqypti) larvae | µM | = | 0.03 |
| CC(C)C(=O)N1CC2(C1)OCc1cc(C3=NOC(c4cc(Cl)c(Cl)c(Cl)c4)(C(F)(F)F)O3)ccc12 (stereo not drawn) | Mosquito (Aedes aeqypti) larvae | µM | = | 0.3 |
| CC(C)C(=O)N1CC2(C1)OCc1cc(C3=NCC(c4cc(Cl)cc(Cl)c4)(C(F)(F)F)C3)ccc12 (stereo not drawn) | Mosquito (Aedes aeqypti) larvae | µM | = | 0.1 |
| CC(C)C(=O)N1CC2(C1)OCc1cc(C3=COC(c4cc(Cl)c(Cl)c(Cl)c4)(C(F)(F)F)C3)ccc12 (stereo not drawn) | Mosquito (Aedes aeqypti) larvae | µM | > | 3 |
| CS(=O)(=O)CC(=O)N1CC2(C1)OCc1cc(C3=NCC(c4cc(Cl)cc(Cl)c4)(C(F)(F)F)C3)ccc12 (stereo not drawn) | Mosquito (Aedes aeqypti) larvae | µM | = | 0.03 |
| CS(=O)(=O)CC(=O)N1CC2(C1)OCc1cc(N3CCC(c4cc(Cl)c(Cl)c(Cl)c4)(C(F)(F)F)C3)ccc12 (stereo not drawn) | Mosquito (Aedes aeqypti) larvae | µM | > | 3 |
| CC(C)C(=O)N1CC2(C1)OCc1cc(C3=COC(c4cc(Cl)cc(Cl)c4)(C(F)(F)F)C3)ccc12 (stereo not drawn) | Mosquito (Aedes aeqypti) larvae | µM | > | 3 |
| CC(C)C(=O)N1CC2(C1)OCc1cc(C3=COC(c4cc(Cl)c(F)c(Cl)c4)(C(F)(F)F)C3)ccc12 (stereo not drawn) | Mosquito (Aedes aeqypti) larvae | µM | > | 3 |
| CC(C)C(=O)N1CC2(C1)OCc1cc(C3=NOC(c4cc(Cl)c(F)c(Cl)c4)(C(F)(F)F)O3)ccc12 (stereo not drawn) | Mosquito (Aedes aeqypti) larvae | µM | = | 0.3 |
| CS(=O)(=O)CC(=O)N1CC2(C1)OCc1cc(C3=NOC(c4cc(Cl)c(F)c(Cl)c4)(C(F)(F)F)O3)ccc12 (stereo not drawn) | Mosquito (Aedes aeqypti) larvae | µM | > | 3 |
| CS(=O)(=O)CC(=O)N1CC2(C1)OCc1cc(C3=NOC(c4cc(Cl)cc(Cl)c4)(C(F)(F)F)O3)ccc12 (stereo not drawn) | Mosquito (Aedes aeqypti) larvae | µM | > | 3 |
| CC(C)C(=O)N1CC2(C1)OCc1cc(C3=NNC(c4cc(Cl)cc(Cl)c4)(C(F)(F)F)C3)ccc12 (stereo not drawn) [Example 19, hydrochloride] | Mosquito (Aedes aeqypti) larvae | µM | = | 0.1 |
